- System tested: T1, B7-H3 on B7-H3-expressing CHO cells (Genescript) (UniProt Q5ZPR3 29-534, limits assumed)
- T1 construct: whole, on cells; also called CHO-K1/B7-H3; MFI B7-H3
- T1 sequence (looked up): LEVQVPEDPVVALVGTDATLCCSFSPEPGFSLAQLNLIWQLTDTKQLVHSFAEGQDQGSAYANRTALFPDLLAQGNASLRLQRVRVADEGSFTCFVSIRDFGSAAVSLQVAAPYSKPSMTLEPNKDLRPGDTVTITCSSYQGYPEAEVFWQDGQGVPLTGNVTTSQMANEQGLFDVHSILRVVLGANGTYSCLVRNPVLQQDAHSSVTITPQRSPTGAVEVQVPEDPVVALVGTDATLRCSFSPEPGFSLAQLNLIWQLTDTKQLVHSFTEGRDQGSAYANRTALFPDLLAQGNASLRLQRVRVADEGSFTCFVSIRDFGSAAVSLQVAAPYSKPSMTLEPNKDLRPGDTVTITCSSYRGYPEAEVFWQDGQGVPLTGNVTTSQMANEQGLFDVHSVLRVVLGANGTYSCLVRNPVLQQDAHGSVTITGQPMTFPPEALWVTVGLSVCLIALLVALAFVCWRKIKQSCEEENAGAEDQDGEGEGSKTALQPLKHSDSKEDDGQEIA
- Protocol description: flow cytometry, B7-H3-expressing CHO cells, 10 ug/ml
Metric: MFI @ 10 ug/ml (MFI)
Kindly answer with a numeric value in MFI, unit omitted.

1. 40579p1.D1 (scFv, V domains shown, Tested as scFv-Fc (Expi293 supernatant)) VH: EVQLLESGGGLVQPGGSLRLSCAASGFTFSDYYMSWVRQAPGKGLEWVSSISISYGGTTYYADSVKGRFTISRDNSKNTLYLQMNSLRAEDTAVYYCARDRSPYQCRSMDVWGQGTTVTVSS VL: EIVLTQSPGSLSLSPGERATLSCRASQSVNSDLAWYQQKPGQAPRLLIYAASSRATGIPARFSGSGSGTEFTLTISSLQSEDFAVYYCQQYNNWPPLTFGGGTKVEIK
36000
2. 40633p1.2.A8 (scFv, V domains shown, Tested as scFv-Fc (Expi293 supernatant)) VH: EVQLLESGGGLLQPGGSLRLSCAASGFSFSSYGMHWVRQAPGKGLEWVAAINSDGSRIYYADSVKGRFTISRDNSKNTLYLQMNSLRAEDTAVYYCTKYYYHYAMDVWGQGTTVTVSS VL: QSVLTQPPSASGTPGQRVTISCSGSRSDIGATTVNWYQQLPGTAPKLLIYQSHLRPSGVPDRFSGSKSGTSASLAISGLQSEDEADYYCASWDASLNTWVFGGGTKLTVL
62200

Now examine the next entry.
Using the record for 40633p1.1.H11 (scFv, V domains shown, Tested as scFv-Fc (Expi293 supernatant)) VH: EVQLLESGGGLVQPGGSLRLSCAASGFTFSSYPMTWVRQAPGKGLEWVADINSGGGTTLYADAVKGRFTISRDNSKNIVYLQMNSLRGEDTAVYYCAKHLDYYSYGMDVWGQGTTVTVSS VL: QSVLTQPPSASGTPGQRVTISCSGVTSKIGSKYVHWYQQLPGTAPKLLIYRNFERPSGVPDRFSGSTSGTSASLAISGLQSEDEADYYCATWEGALNGWVFGGGTKLTVL , report its MFI @ 10 ug/ml.
81300
